Data origin, for the record: patent US20260125454A1

# experimental system: T1, Biotin-huCGRPaSA (human, not fully specified; biotin (position not given))
# T1 construct: exact construct ('aSA') not explained; also called Biotin CGRPaSA; full-length (1-37) CGRP
# T1 peptide: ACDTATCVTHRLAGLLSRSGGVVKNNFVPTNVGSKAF
# protocol text: ELISA, supernatant; relative to chimeric C245
Label no if Relative binding activity, % falls below 30%; label yes in every other case.

[ask] Given the entry hu81 (antibody, V domains shown, 1F5 HC-5/1A2 LC2-3) VH: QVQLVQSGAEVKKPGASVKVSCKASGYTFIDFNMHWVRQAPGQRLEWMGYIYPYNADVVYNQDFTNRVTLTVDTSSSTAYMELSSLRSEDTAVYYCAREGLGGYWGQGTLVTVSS VL: EIVLTQSPATLSLSPGERATLSCKASQNIDYDGYAYLNWYQQKPGQAPRVLIYSVFNLESGIPARFSGSGSGTDFTLTISSLEPEDFAVYYCQQSNEFPYTFGQGTKLEIK , answer whether its Relative binding activity, % meets or surpasses 30%.
[reply] yes

[ask] Given the entry hu65 (antibody, V domains shown, 1F5 HC-3/3H10 LC2-2) VH: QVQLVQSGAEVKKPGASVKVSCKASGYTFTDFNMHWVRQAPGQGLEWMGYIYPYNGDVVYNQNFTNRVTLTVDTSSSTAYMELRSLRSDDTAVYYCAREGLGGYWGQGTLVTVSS VL: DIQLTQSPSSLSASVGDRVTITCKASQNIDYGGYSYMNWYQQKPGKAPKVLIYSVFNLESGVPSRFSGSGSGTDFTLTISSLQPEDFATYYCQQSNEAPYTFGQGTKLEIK , answer whether its Relative binding activity, % meets or surpasses 30%.
[reply] no

[ask] Given the entry hu100 (antibody, V domains shown, 2A2 HC-1/2B8 LC2-1) VH: QVQLVQSGAEVKKPGASVKVSCKASGYTFTDYNMHWVRQAPGQRLEWMGYVYPYNGGSAYNQKFKSRVTLTVDTSSSTAYMELSSLRSEDTAVYYCAREGLGGYWGQGTLVTVSS VL: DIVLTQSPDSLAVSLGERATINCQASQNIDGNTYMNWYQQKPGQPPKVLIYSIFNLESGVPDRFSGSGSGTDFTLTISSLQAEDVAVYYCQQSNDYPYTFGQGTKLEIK , answer whether its Relative binding activity, % meets or surpasses 30%.
[reply] yes

[ask] Given the entry hu205 (antibody, V domains shown, 3H10 HC-1/2B8 LC2-2) VH: QVQLVQSGAEVKKPGASVKVSCKASGYTFTDYNMHWVRQAPGQGLEWMGYIYPYNGHTVYNQKFRNRVTMTVDTSSSTAYMELRSLRSDDTAVYYCAKEGLGGYWGQGTLVTVSS VL: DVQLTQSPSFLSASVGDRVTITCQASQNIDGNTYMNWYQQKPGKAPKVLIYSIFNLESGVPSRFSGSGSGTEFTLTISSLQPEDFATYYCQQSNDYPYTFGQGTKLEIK , answer whether its Relative binding activity, % meets or surpasses 30%.
[reply] no

---
[ask] Given the entry hu232 (antibody, V domains shown, 3C1 HC-3/3C1 LC-3) VH: QVQLVQSGSELKKPGASVKVSCKASGYTFTGYTMNWVRQAPGQGLEWMGLINPYIGNTHYNQKFKDRFVFSVDRSSSTAYLQISSLKAEDTAVYYCARELDSGFDYWGQGTLVTVSS VL: DVVMTQSPDSLAVSLGERATINCRSSQNIVHSNGDTYLEWYQQKPGQPPKLLIYKVSNRFSGVPDRFSGSGSGTDFTLTISSLQAEDVAVYYCYQGSHVPWTFGQGTKLEIK , answer whether its Relative binding activity, % meets or surpasses 30%.
[reply] yes
